Cited source for all entries: ChEMBL document CHEMBL1201862

- System: HCT-116
- assay notes: NCI tumour cell line growth inhibition, 48 h
Activity calls are given as the source filed them. Cut-off read from the data, not from the text of the source: active = GI50 up to about 1.1 µM and inactive = higher.
The compounds listed here are annotated with their GI50.

compound	GI50
CCOC(=O)NC(=O)c1cn(CCCOC(=O)NCCCCCCNC(=O)OCCCn2c(=O)c(C(=O)NC(=O)OCC)cn(C)c2=O)c(=O)n(C)c1=O	> 100 µM (inactive)

Query :: Lookup: GI50 / HCT-116 / O=c1c2c3c(sc2nc2n1N=CN(c1ccc(Cl)cc1)C2)CCCC3
Result :: 26.9 µM (inactive)

Query :: Lookup: GI50 / HCT-116 / COc1ccc(N(C(=O)NCCO)c2ccccc2)cc1
Result :: > 100 µM (inactive)

Query :: Lookup: GI50 / HCT-116 / CC1NC(C(=O)O)Cc2cc(O)c(O)cc21 (stereo not given)
Result :: > 100 µM (inactive)

Query :: Lookup: GI50 / HCT-116 / C=C1C2C[C@@H]3O[C@H]4C[C@H]5O[C@@]6(C[C@@H]7O[C@]8(C[C@H](C)[C@@H]9O[C@@H]%10CC(C=O)O[C@@H]%10C[C@@H]9O8)C[C@H](C)[C@@H]7O6)C[C@H]5O[C@H]4[C@H](C)[C@H]3OC(=O)C[C@H]3CC[C@@H]4OC5[C@H]6O[C@]7(CC[C@H]8CC(=C)[C@H](CC[C@@H](C[C@H]1C)O2)O8)CC6O[C@@H]5[C@@H](O7)[C@H]4O3 (stereo not given in full)
Result :: < 0.0001 µM (active)

Query :: Lookup: GI50 / HCT-116 / CC(=O)OCC12C(OC(C)=O)C[C@@H](C)C3(CC(c4ccoc4)OC3=O)C1CCC(OC(C)=O)C21CO1 (stereo not given in full)
Result :: > 100 µM (inactive)

Query :: Lookup: GI50 / HCT-116 / O=C1CCCCC/C1=C\c1ccccc1
Result :: > 100 µM (inactive)

Query :: Lookup: GI50 / HCT-116 / Cc1ccc(O)c(C(c2cc(C)ccc2O)c2cc([N+](=O)[O-])ccc2O)c1
Result :: 24.6 µM (inactive)

Query :: Lookup: GI50 / HCT-116 / CC(C)[Si](OCC1CC(C[C@H]2CC(C[C@H]3C[C@@H](CO[Si](C(C)C)(C(C)C)C(C)C)OC(C)(C)O3)OC(C)(C)O2)OC(C)(C)O1)(C(C)C)C(C)C (stereo not given in full)
Result :: > 100 µM (inactive)

Query :: Lookup: GI50 / HCT-116 / Cc1ccc(-c2nc3ccccc3c(=O)n2NCC2(O)OCC(O)C(O)C2O)cc1 (stereo not given)
Result :: > 100 µM (inactive)

Query :: Lookup: GI50 / HCT-116 / CC[N+]1(C)CCC(O)(/C=C/c2ccc(OC)cc2)C(C(=O)/C=C/c2ccc(OC)cc2)C1 (stereo not given)
Result :: 12.7 µM (inactive)

Query :: Lookup: GI50 / HCT-116 / COc1ccccc1/N=N/c1c(O)c(S(=O)(=O)O)cc2cc(S(=O)(=O)O)ccc12
Result :: > 100 µM (inactive)

Query :: Lookup: GI50 / HCT-116 / C[C@@H](CC(=O)OCc1ccccc1)OC1OC(COC(=O)C(C)(C)C)C(OC(=O)C(C)(C)C)C(OC(=O)C(C)(C)C)C1OC(=O)C(C)(C)C (stereo not given in full)
Result :: > 100 µM (inactive)

Query :: Lookup: GI50 / HCT-116 / CC(C)=CCc1c(O)c(CC=C(C)C)c2oc3c(c(=O)c2c1O)C(C=C(C)C)Oc1cc(O)ccc1-3 (stereo not given)
Result :: 3.74 µM (inactive)
